System: UACC-62 melanoma
Assay: NCI tumour cell line growth inhibition, 48 h
Hi there, I'd appreciate the recorded TGI for every entry that follows.

Here's what some known entries look like.
{"columns": ["compound", "measured metric", "value reported"],
 "data": [
  ["O=c1[nH]c(=O)n(C2CC(O)C(CO)O2)cc1C#Cc1c(F)c(F)c(F)c(F)c1F (stereo unspecified)", "TGI", "> 100 µM"],
  ["CC1=C[C@@H]2Cc3occc3C(C)(C)[C@@H]2CC1", "TGI", "> 10 µM"],
  ["c1ccc(-c2nnc(-c3nn(-c4ccccc4)c4nc5ccccc5nc34)o2)cc1", "TGI", "> 100 µM"],
  ["c1ccc(N=c2snc(-c3ccccc3)s2)cc1", "TGI", "> 100 µM"],
  ["Cc1ccc(C2=Nc3c(c(C)nn3-c3ccccc3)N=C(C(=O)O)C2)cc1", "TGI", "> 10 µM"]
]}

Value sought for every listed compound: TGI.
1. Cn1cc(C2=C(c3ccc(OC[C@@H](O)CO)cc3)C(=O)NC2=O)c2ccccc21
2. CCN(CC)CCCn1c(=O)c2cccnc2n2c3c(=O)n(C)c(=O)n(C)c3nc12
3. CCOC(=O)C1C(=O)CC(O)(c2ccccc2)C(C(=O)OCC)C1c1ccc(OC)cc1 (stereo unspecified)
4. CCCCCCCCCCCCCCC1OC(=O)c2ccccc21 (stereo unspecified)

Result:
> 25 µM
> 100 µM
> 100 µM
> 100 µM

Value sought for every listed compound: TGI.
1. O=C1/C(=C/c2ccccc2)CN(C(=O)Oc2ccc(Cl)cc2)C/C1=C\c1ccccc1
2. CCOP(=O)(OCC)/C(F)=C/c1ccccc1
3. COc1cccc(-c2nc(-c3cnccn3)n(Cc3ccccc3)n2)c1
4. O=C1/C(=C/c2ccc([N+](=O)[O-])cc2)CNC/C1=C\c1ccc([N+](=O)[O-])cc1

Result:
1: 5.42 µM; 2: > 100 µM; 3: > 100 µM; 4: 29.5 µM

Value sought for every listed compound: TGI.
1. CCOc1ccc2nc(NC(=O)/C(CC(=O)CC(C3=C(O)c4ccccc4CC3=O)c3ccccc3)=N\O)sc2c1 (stereo unspecified)
2. CC(=O)/C=C/c1cccc(N=S)c1
3. ClCc1ccccc1CSc1ncnc2nc[nH]c12
4. Cc1ccc(C(=O)Nc2ccc(CP(=O)(O)O)cc2)cc1NC(=O)c1cccc(NC(=O)Nc2cccc(C(=O)Nc3cc(C(=O)Nc4ccc(CP(=O)(O)O)cc4)ccc3C)c2)c1
5. Clc1ccc(Cc2nc3cc4ccccc4cc3[nH]2)cc1

Result:
["> 100 µM", "> 57.2 µM", "> 60 µM", "> 100 µM", "> 100 µM"]

====

Tested on: A549 NSCLC
Experiment: NCI tumour cell line growth inhibition, 48 h
Hi there, I'd appreciate the recorded TGI for every entry that follows.

{"columns": ["compound", "TGI"],
 "data": [
  ["COc1ccc(NC2Oc3cc4c(cc3C(c3cc(OC)c(OC)c(OC)c3)C2C)OCO4)cc1 (stereo unspecified)", "> 61.9 µM"],
  ["NS(=O)(=O)c1ccc(-n2nc(-c3ccc(Br)cc3)ccc2=O)cc1", "> 10 µM"],
  ["O=C(O)Cc1ccc2nc(COC(=O)c3ccccc3)sc2c1", "> 100 µM"],
  ["O=C1C(Br)=Cc2c(Cl)sc(Cl)c21", "> 72.9 µM"],
  ["N#CC(C#N)=C1CCCS(=O)(=O)c2ccccc21", "> 100 µM"]
]}

Value sought for every listed compound: TGI.
1. CC1=CC(=O)N(n2c(C)n[nH]c2=O)C1=O
2. Nc1ncnc2c1ncn2C(=O)NC12CC3CC(CC(C3)C1)C2
3. Cc1nc2nnc(C)n2c2c1C(=O)Nc1ccccc1N2
4. C1CN2N3CCCC23C1 (stereo unspecified)
5. COc1cc2c(c(OC)c1OC)-c1ccc(NCc3ccccc3)c(=O)cc1[C@@H](NC(C)=O)CC2
6. CC[n+]1ccc2c(c1)C(=O)c1nccc3c1c-2nc1ccccc13

Result:
1. > 100 µM
2. > 100 µM
3. > 100 µM
4. > 100 µM
5. > 100 µM
6. 13.5 µM
